Documented Ratio of aggregates across a set of compounds
system: anti-B7-H3 antibody P2E5; assay: Coupling of linker-drug conjugates with P2E5; assay type: physicochemical; conditions: coupling with P2E5, highest DAR (excessive coupling)
Starred links: 1 amine or outer side, 2 acyl side, 3 side chain; linkers in the order of their positions; H or OH if unused. Non-standard residues stand in square brackets, D forms with d. Residues, ends and D or L forms follow the SMILES beside them. *: point of attachment. Exatecan = CC[C@@]1(O)C(=O)OCc2c1cc1n(c2=O)Cc2c-1nc1cc(F)c(C)c3c1c2[C@@H](N*)CC3; Hexanoyl(6-maleimido) = O=C1C=CC(=O)N1CCCCCC(=O)*; X3 = O=C1C=CC(=O)N1CC1CCC(C(=O)*)CC1; NHCH2OCH2CO = O=C(COCN[*:1])[*:2]
Express your answer in %, writing the number without its unit.

Worked set:
CC[C@@]1(O)C(=O)OCc2c1cc1n(c2=O)Cc2c-1nc1cc(F)c(C)c3c1c2[C@@H](NC(=O)COCNC(=O)CNC(=O)[C@H](Cc1ccccc1)NC(=O)CNC(=O)CNC(=O)CCCCCN1C(=O)C=CC1=O)CC3 [GGFG-Dxd, reference compound] ({Hexanoyl(6-maleimido)}-GGFG[NHCH2OCH2CO]-Exatecan)
20
CC[C@@]1(O)C(=O)OCc2c1cc1n(c2=O)Cc2c-1nc1cc(F)c(C)c3c1c2[C@@H](NC(=O)COCNC(=O)CNC(=O)[C@H](Cc1ccccc1)NC(=O)CNC(=O)CNC(=O)C1CCC(CN2C(=O)C=CC2=O)CC1)CC3 (stereo partly shown) [LE01] (X3-GGFG[NHCH2OCH2CO]-Exatecan)
2.1
CC[C@@]1(O)C(=O)OC(=O)C2=C1C=C1c3nc4cc(F)c(C)c5c4c(c3CN1C2)[C@@H](NC(=O)COCN(CCS(C)(=O)=O)C(=O)OCc1ccc(NC(=O)[C@H](C)NC(=O)[C@@H](NC(=O)CCCn2cc(CNC3CCC(CN4C(=O)C=CC4=O)CC3)nn2)C(C)C)cc1)CC5 (stereo partly shown)
1.6

Turning now to a further record.
Would you kindly share the measured Ratio of aggregates for CC[C@@]1(O)C(=O)OC(=O)C2=C1C=C1c3nc4cc(F)c(C)c5c4c(c3CN1C2)[C@@H](NC(=O)COCN(CCS(C)(=O)=O)C(=O)OCc1ccc(NC(=O)[C@H](C)NC(=O)[C@@H](NC(=O)C2CCC(CN3C(=O)C=CC3=O)CC2)C(C)C)cc1)CC5 (stereo partly shown) ? 2.0

----------
test system: anti-Claudin18.2 antibody IMAB362; test: Coupling of linker-drug conjugates with IMAB362; assay type: physicochemical; conditions: coupling with IMAB362, highest DAR (excessive coupling)
Starred links: 1 amine or outer side, 2 acyl side, 3 side chain; linkers in the order of their positions; H or OH if unused. Non-standard residues stand in square brackets, D forms with d. Residues, ends and D or L forms follow the SMILES beside them. *: point of attachment. X2 = CC[C@@]1(O)C(=O)OC(=O)C2=C1C=C1c3nc4cc(F)c(C)c5c4c(c3CN1C2)[C@@H](N*)CC5; Hexanoyl(6-maleimido) = O=C1C=CC(=O)N1CCCCCC(=O)*; NHCH2OCH2CO = O=C(COCN[*:1])[*:2]
metric: Ratio of aggregates (%)
Express your answer in %, writing the number without its unit.

CCC1(O)C(=O)OC(=O)C2=C1C=C1c3nc4cc(F)c(C)c5c4c(c3CN1C2)C(NC(=O)COCNC(=O)CNC(=O)C(Cc1ccccc1)NC(=O)CNC(=O)CNC(=O)CCOCCOCCOCCOCCOCCOCCOCCOCCN1C(=O)C=CC1=O)CC5 (centres unmarked)
2.1

Turning now to a further record.
Would you kindly share the measured Ratio of aggregates for CC[C@@]1(O)C(=O)OC(=O)C2=C1C=C1c3nc4cc(F)c(C)c5c4c(c3CN1C2)[C@@H](NC(=O)COCNC(=O)CNC(=O)[C@H](Cc1ccccc1)NC(=O)CNC(=O)CNC(=O)[C@H](CCCCN)NC(=O)CCCCCN1C(=O)C=CC1=O)CC5 [LE06] ({Hexanoyl(6-maleimido)}-KGGFG[NHCH2OCH2CO]-X2) ? 1.7
